Test details: small-molecule microarray binders of probe aWnt5a, primary screen, biochemical, biotinylated probe, 635/667 nm fluorescence (AID 1113);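 also: score merges 667 nm fluorescence intensity with signal-to-noise per printed feature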
Assay context: higher = more signal
Recorded measurements of composite z-score, one per entry
Assay endpoint: composite z-score

>>> readout_value("C=CCC1=C[C@H]2[C@H]([C@@H]3C=C[C@]2(CC=C)C(=O)[C@]32CO2)[C@@]2(CO2)C1=O")
0.133
>>> readout_value("O=C1C[C@@](C(=O)NCCN2CCOCC2)(c2ccc([N+](=O)[O-])cc2)[C@@H](c2ccc(CO)cc2)N1C1CCCCC1")
0.0621
>>> readout_value("COc1ccc(CCN2C(=O)[C@@]3(c4ccc([N+](=O)[O-])cc4)CC(=O)N(CC45CC6CC(CC(C6)C4)C5)[C@@H]3c3ccc(CO)cc32)cc1")
-0.0101
>>> readout_value("O=C1O[C@H](c2ccccc2)[C@H](c2ccccc2)N2[C@H]1[C@@H](C(=O)Nc1nc3ccccc3s1)[C@]1(C(=O)Nc3ccc(C#CC4(O)CCCCCC4)cc31)[C@H]2c1ccc(O)cc1")
-0.0125
>>> readout_value("COCCCNC(=O)[C@@H]1c2ccccc2C(=O)N(CC23CC4CC(CC(C4)C2)C3)[C@H]1c1ccc(CO)cc1")
-0.0405
>>> readout_value("Cc1ccc(S(=O)(=O)N2[C@@H](c3ccccc3)C(C(=O)O)=CC[C@H]2c2ccccc2)cc1")
0.0317
>>> readout_value("[N-]=[N+]=NCc1ccccc1C[C@]1(C(=O)N2CCCCC2)N=C(c2ccc(OCCCO)cc2)O[C@H]1c1ccccc1CN=[N+]=[N-]")
0.0375
>>> readout_value("CC(=O)NCCCC[C@@H]1NC(=O)[C@@H]2C[C@H](C(=O)NCCCCCNC(=O)CS)[C@H](c3ccc(O)cc3)N2C1=O")
-0.221
>>> readout_value("C=CCN(C(=O)C1N(c2ccc(CCO)cc2)C(=O)C2C(C(=O)O)C3C=CC21O3)C(C)(C)C (stereo not drawn)")
-0.287
>>> readout_value("C=C(CCCC)C(=O)CC[C@@H](OC(=O)c1cccnc1)c1cccc(OCCO)c1")
-0.0213
>>> readout_value("CCCC[C@@H]1C[C@H]1[C@@H](NC(=O)c1ccccc1)c1ccccc1C(F)(F)F")
-0.127
>>> readout_value("CO[C@H]1COC(=O)[C@H](CCSC)NC(=O)CC=C[C@@H](C)COC(=O)[C@@H](OCc2ccccc2)C=C[C@@H]1C")
-0.182
>>> readout_value("COc1cc(CO)cc(I)c1O[C@H]1C=C(C(=O)NCCO)C[C@@H](NCCc2c[nH]c3ccccc23)[C@@H]1O")
-0.0032
>>> readout_value("CC(C)[C@H]1NC(=O)[C@@]23C(=O)N[C@@H](Cc4ccccc4)C2[C@H](C)[C@@]2(C)O[C@H]2C3/C=C/C/C=C\\CNC(=O)[C@H](C)NC1=O (stereo partly drawn)")
-0.284
>>> readout_value("COc1cc2c(cc1OC)CN(C(=O)[C@H]1[C@@H]3C(=O)O[C@@H](c4ccccc4)[C@@H](c4ccccc4)N3[C@@H](c3ccccc3OCCO)[C@]13C(=O)Nc1ccc(C#CC4(O)CCCCCC4)cc13)CC2")
0.0676
>>> readout_value("CCCC=C(CCC)[C@@H](NS(=O)(=O)c1ccc(C(F)(F)F)cc1)c1ccc(-c2ccccc2)cc1")
0.145
>>> readout_value("CN(C)CCCC[C@@H]1NC(=O)[C@@H]2C[C@H](C(=O)NCCCCCNC(=O)CS)[C@H](c3ccc(O)cc3)N2C1=O")
-0.124
>>> readout_value("CC(C)[Si](OCCCNS(=O)(=O)c1ccc(Br)cc1)(C(C)C)C(C)C")
0.037
>>> readout_value("CO[C@H]1COC(=O)[C@@H](C)NC(=O)CC=C[C@@H](C)[C@H](OC)COC(=O)CC=C[C@@H]1C")
-0.202
>>> readout_value("COC(=O)c1c(CC[C@@H](CO)NC(=O)N[C@H](Cn2cc(-c3cncn3C)nn2)C(C)C)oc(C(C)=O)c1C(=O)OC")
-0.1
>>> readout_value("CO[C@@H]1COC(=O)[C@H](COCc2ccccc2)NC(=O)CC=C[C@@H](C)[C@H](OC)COC(=O)[C@H](COCc2ccccc2)NC(=O)CC=C[C@H]1C")
-0.0927
>>> readout_value("COCCOC(=O)N1C(=O)[C@@]2(c3cc(C#CC4=CCCCC4)ccc31)[C@H](C(=O)NC[C@H](O)c1ccccc1)[C@H]1C(=O)O[C@H](c3ccccc3)[C@H](c3ccccc3)N1[C@@H]2c1ccccc1OCCO")
0.0246
>>> readout_value("CCOC(=O)C[C@H]1[C@H](OC(=O)c2cc3ccccc3oc2=O)[C@@H](NC(=O)c2ccc3ccccc3c2)c2cc(OCCCO)ccc2N1C(=O)c1ccc2ccccc2n1")
0.0554
>>> readout_value("CCCNC(=O)[C@@]1(Sc2ccc(C)cc2)CC(=O)N(Cc2ccccc2Cl)[C@@H]1c1ccc(CO)cc1")
-0.0478
>>> readout_value("Cc1ccccc1C(O)C1C=CC2C(=O)N(c3ccccc3)C(=O)C2N1Nc1ccc(C#N)cc1 (stereo not drawn)")
0.24
>>> readout_value("O=C1C2C=CC(C(O)c3ccccc3)N(n3cnnc3)C2C(=O)N1Cc1ccccc1 (stereo not drawn)")
0.0357
>>> readout_value("CN1C(=O)C2C=CC(C(O)C3CC=CCC3)N(Nc3ccccc3)C2C1=O (stereo not drawn)")
-0.0792
>>> readout_value("CO[C@H]1O[C@H](CO)[C@@H](OC(=O)CCc2ccccc2)[C@@H]2OC(=O)[C@H](Cc3cccc(Br)c3)C/C=C/C[C@@H](Cc3cccc(Br)c3)C(=O)O[C@@H]12")
-0.0819
